Overview of reported pKd across a group of binders:
- MEASURED ON: T1, recombinant human ErbB3 protein (R&D systems) (human, UniProt P21860 20-643)
- T1 construct: Bought recombinant protein; also called HER3
- PROTOCOL DETAILS: BLI (Octet QK384), human ErbB3 immobilized on AR2G sensor, IgG at 12.5-50 nM
Scale: pKd equals -log10([C]), with [C] in mol/L.

BINDER: 451M6 (antibody, V domains shown, IgG1 (Selexis 085 vector, CHO)) VH: EVQLLESGGGLVQPGGSLRLSCAASGFTFSHYDMSWVRQAPGKGLEWVSAIYYDSGSIYYADSAKGRFTISRDNSKNTLYLQMNSLRAEDTAVYYCAKDRLFESDSTFDYWGQGTLVTVSS VL: QSVLTQPPSASGTPGQRVTISCSGSPSNIGNNSVTWYQQLPGTAPKLLIYYDSHRPSGVPDRFSGSKSGTSASLAISGLRSEDEADYYCGSWDASLNGYVFGGGTKLTVLG
EXPERIMENTAL ENDPOINT: pKd
VALUE: 11.46

# lookup: pKd of 442M11 (antibody, V domains shown, IgG1 (Selexis 085 vector, CHO)) VH: EVQLLESGGGLVQPGGSLRLSCAASGFTFSDYDMSWVRQAPGKGLEWVSTIEPDYGSTLYADSVQGRFTISRDNSKNTLYLQMNSLRAEDTAVYYCAKDLHMGPEGPFDYWGQGTLVTVSS VL: QSVLTQPPSASGTPGQRVTISCSGSSSNIGSNSVSWYQQLPGTAPKLLIYSDNHRPSGVPDRFSGSKSGTSASLAISGLRSEDEADYYCHAWDSSLSGDFFGGGTKLTVLG
11.27
